protocol_details: melting temperature; melt of duplexes
condition_description: sodium 0.0675 M; strand 1 µM
// values below are reported Tm
Write the answer as a number in °C, unit excluded.

Consider the reported Tm for these substances:
| substance | reported |
| --- | --- |
| CGACGTGCCAAATGTGCTG+CAGCACATGATGCACGTCG ((((((((...((((((((+))))))))...)))))))) | 50.3 |
| CGACGTGCAGGATGTGCTG+CAGCACATGCGGCACGTCG ((((((((.(.((((((((+)))))))).).)))))))) | 55.3 |
| CGACGTGCTGTATGTGCTG+CAGCACATGTAGCACGTCG (((((((((..((((((((+))))))))..))))))))) | 53.3 |

Query: For the substance CGACGTGCCACATGTGCTG+CAGCACATATTGCACGTCG ((((((((.(.((((((((+)))))))).).)))))))) , what Tm is on record?
Result: 47.4
